Values were extracted from patent US20150258059A1.

Test system: β-hemolytic streptococcus B-624
assay procedure: Sensitivity of strains: suppression of growth
Assay type: cell-based
condition notes: Compound (1) 1.0%; antibiotics disc method
assay endpoint: Suppression of Growth (+/−)

Take a look at these entries with their results.
C/C(=C\c1ccc2c(c1)OCO2)[N+](=O)[O-] [Compound (1)] = +
CCC[C@@H]1C[C@@H](C(=O)N[C@@H]([C@H]2O[C@H](SC)[C@H](O)[C@@H](O)[C@H]2O)[C@@H](C)O)N(C)C1 [Antibiotic 6, lincomycin] = −
CN(C)[C@@H]1C(=O)C(C(N)=O)=C(O)[C@@]2(O)C(=O)C3=C(O)c4c(O)cccc4[C@@](C)(O)[C@H]3C[C@@H]12 [Antibiotic 13, tetracycline] = −
NC[C@H]1O[C@H](O[C@H]2[C@H](O)[C@@H](O[C@H]3O[C@H](CO)[C@@H](O)[C@H](N)[C@H]3O)[C@H](N)C[C@@H]2N)[C@H](O)[C@@H](O)[C@@H]1O [Antibiotic 5, kanamycin] = −

Field: next molecule
Entry under review: CC1(C)S[C@@H]2[C@H](NC(=O)C(C(=O)O)c3ccccc3)C(=O)N2[C@H]1C(=O)O (some centres unmarked) [Antibiotic 4, carbenicillin] . Reported Suppression of Growth (+/−)?
+

----------
Test system: Staphylococci epidermidis D-513
assay procedure: Sensitivity of strains: suppression of growth
Format: cell-based
condition notes: Compound (1) 1.0%; antibiotics disc method
assay endpoint: Suppression of Growth (+/−)

CC1(C)S[C@@H]2[C@H](NC(=O)C(C(=O)O)c3ccccc3)C(=O)N2[C@H]1C(=O)O (stereo partly shown) [Antibiotic 4, carbenicillin] = +
NC[C@H]1O[C@H](O[C@H]2[C@H](O)[C@@H](O[C@H]3O[C@H](CO)[C@@H](O)[C@H](N)[C@H]3O)[C@H](N)C[C@@H]2N)[C@H](O)[C@@H](O)[C@@H]1O [Antibiotic 5, kanamycin] = −
CO[C@H]1/C=C/O[C@@]2(C)Oc3c(C)c(O)c4c(O)c(c(/C=N/N5CCN(C)CC5)c(O)c4c3C2=O)NC(=O)/C(C)=C\C=C\[C@H](C)[C@H](O)[C@@H](C)[C@@H](O)[C@@H](C)[C@H](OC(C)=O)[C@@H]1C [Antibiotic 10, rifampicin] = +
[H]/N=C(/N)N[C@H]1[C@H](O)[C@@H](O)[C@H](O[C@@H]2O[C@@H](C)[C@](O)(C=O)[C@H]2O[C@@H]2O[C@@H](CO)[C@H](O)[C@@H](O)[C@@H]2NC)[C@@H](N/C(N)=N\[H])[C@@H]1O [Antibiotic 12, streptomycin] = −

----------
Tested on: β-hemolytic streptococcus B-624
assay procedure: Sensitivity of strains: suppression of growth
Type: cell-based
condition notes: Compound (1) 1.0%; antibiotics disc method
assay endpoint: Suppression of Growth (+/−)

Take a look at these entries with their results.
CC[C@H]1OC(=O)[C@H](C)[C@@H](O[C@H]2C[C@@](C)(OC)[C@@H](O)[C@H](C)O2)[C@H](C)[C@@H](O[C@@H]2O[C@H](C)C[C@H](N(C)C)[C@H]2O)[C@](C)(O)C[C@@H](C)C(=O)[C@H](C)[C@@H](O)[C@]1(C)O [Antibiotic 14, erythromycin] = −
[H]/N=C(/N)N[C@H]1[C@H](O)[C@@H](O)[C@H](O[C@@H]2O[C@@H](C)[C@](O)(C=O)[C@H]2O[C@@H]2O[C@@H](CO)[C@H](O)[C@@H](O)[C@@H]2NC)[C@@H](N/C(N)=N\[H])[C@@H]1O [Antibiotic 12, streptomycin] = −
CC1(C)S[C@@H]2[C@H](NC(=O)[C@H](N)c3ccccc3)C(=O)N2[C@H]1C(=O)O [Antibiotic 2, ampicillin] = +
O=C(N[C@H](CO)[C@H](O)c1ccc([N+](=O)[O-])cc1)C(Cl)Cl [Antibiotic 7, levomicethin] = −

Entry under review: CO[C@H]1/C=C/O[C@@]2(C)Oc3c(C)c(O)c4c(O)c(c(/C=N/N5CCN(C)CC5)c(O)c4c3C2=O)NC(=O)/C(C)=C\C=C\[C@H](C)[C@H](O)[C@@H](C)[C@@H](O)[C@@H](C)[C@H](OC(C)=O)[C@@H]1C [Antibiotic 10, rifampicin] . Reported Suppression of Growth (+/−)?
+

----------
assay procedure: Blood levels after single-dose oral administration, UV spectroscopy
Assay type: in vivo, Sprague-Dawley rats
condition notes: Sprague-Dawley, rat, serum, oral, 500 mg/kg, 500 mg/kg fasted; 8 hours; read-out: Blood Level of Compound (1), Mean
assay endpoint: concentration at 8 h (µg/mL)
Give bare numbers, in µg/mL.

Entry under review: C/C(=C\c1ccc2c(c1)OCO2)[N+](=O)[O-] . Reported concentration at 8 h?
14

----------
Tested on: Alkaligenes sp. B-667
assay procedure: Sensitivity of strains: suppression of growth
Format: cell-based
condition notes: Compound (1) 1.0%; antibiotics disc method
assay endpoint: Suppression of Growth (+/−)

CCC[C@@H]1C[C@@H](C(=O)N[C@@H]([C@H]2O[C@H](SC)[C@H](O)[C@@H](O)[C@H]2O)[C@@H](C)O)N(C)C1 [Antibiotic 6, lincomycin] = −
CN(C)[C@@H]1C(=O)C(C(N)=O)=C(O)[C@@]2(O)C(=O)C3=C(O)c4c(O)cccc4[C@@](C)(O)[C@H]3C[C@@H]12 [Antibiotic 13, tetracycline] = −
O=C(N[C@H](CO)[C@H](O)c1ccc([N+](=O)[O-])cc1)C(Cl)Cl [Antibiotic 7, levomicethin] = −

----------
Test system: Staphylococci epidermidis D-513
assay procedure: Sensitivity of strains: suppression of growth
Format: cell-based
condition notes: Compound (1) 1.0%; antibiotics disc method
assay endpoint: Suppression of Growth (+/−)

Take a look at these entries with their results.
CN(C)[C@@H]1C(=O)C(C(N)=O)=C(O)[C@@]2(O)C(=O)C3=C(O)c4c(O)cccc4[C@@](C)(O)[C@H]3C[C@@H]12 [Antibiotic 13, tetracycline] = −
CC1(C)S[C@@H]2[C@H](NC(=O)[C@H](N)c3ccccc3)C(=O)N2[C@H]1C(=O)O [Antibiotic 2, ampicillin] = +
CC[C@H]1OC(=O)[C@H](C)[C@@H](O[C@H]2C[C@@](C)(OC)[C@@H](O)[C@H](C)O2)[C@H](C)[C@@H](O[C@@H]2O[C@H](C)C[C@H](N(C)C)[C@H]2O)[C@](C)(O)C[C@@H](C)C(=O)[C@H](C)[C@@H](O)[C@]1(C)O [Antibiotic 14, erythromycin] = −
O=C(N[C@H](CO)[C@H](O)c1ccc([N+](=O)[O-])cc1)C(Cl)Cl [Antibiotic 7, levomicethin] = −

Field: next molecule
Entry under review: CCC[C@@H]1C[C@@H](C(=O)N[C@@H]([C@H]2O[C@H](SC)[C@H](O)[C@@H](O)[C@H]2O)[C@@H](C)O)N(C)C1 [Antibiotic 6, lincomycin] . Reported Suppression of Growth (+/−)?
+

----------
Tested on: Corynebacterium diphtheriae B-670
assay procedure: Sensitivity of strains: suppression of growth
Assay type: cell-based
condition notes: Compound (1) 1.0%; antibiotics disc method
assay endpoint: Suppression of Growth (+/−)

[H]/N=C(/N)N[C@H]1[C@H](O)[C@@H](O)[C@H](O[C@@H]2O[C@@H](C)[C@](O)(C=O)[C@H]2O[C@@H]2O[C@@H](CO)[C@H](O)[C@@H](O)[C@@H]2NC)[C@@H](N/C(N)=N\[H])[C@@H]1O [Antibiotic 12, streptomycin] = −
CN(C)[C@@H]1C(=O)C(C(N)=O)=C(O)[C@@]2(O)C(=O)C3=C(O)c4c(O)cccc4[C@@](C)(O)[C@H]3C[C@@H]12 [Antibiotic 13, tetracycline] = +
CCC[C@@H]1C[C@@H](C(=O)N[C@@H]([C@H]2O[C@H](SC)[C@H](O)[C@@H](O)[C@H]2O)[C@@H](C)O)N(C)C1 [Antibiotic 6, lincomycin] = −

----------
assay procedure: Blood levels after single-dose oral administration, UV spectroscopy
Type: in vivo, Sprague-Dawley rats
condition notes: Sprague-Dawley, rat, serum, oral, 500 mg/kg, 500 mg/kg fed; 8 hours; read-out: Blood Level of Compound (1), Mean
assay endpoint: concentration at 8 h (µg/mL)
One number for each entry, in µg/mL.

Entry under review: C/C(=C\c1ccc2c(c1)OCO2)[N+](=O)[O-] . Reported concentration at 8 h?
17

----------
System: Staphylococcus aureus M-209
assay procedure: Sensitivity of strains: suppression of growth
Type: cell-based
condition notes: Compound (1) 1.0%; antibiotics disc method
assay endpoint: Suppression of Growth (+/−)

NC[C@H]1O[C@H](O[C@H]2[C@H](O)[C@@H](O[C@H]3O[C@H](CO)[C@@H](O)[C@H](N)[C@H]3O)[C@H](N)C[C@@H]2N)[C@H](O)[C@@H](O)[C@@H]1O [Antibiotic 5, kanamycin] = +
CC[C@H]1OC(=O)[C@H](C)[C@@H](O[C@H]2C[C@@](C)(OC)[C@@H](O)[C@H](C)O2)[C@H](C)[C@@H](O[C@@H]2O[C@H](C)C[C@H](N(C)C)[C@H]2O)[C@](C)(O)C[C@@H](C)C(=O)[C@H](C)[C@@H](O)[C@]1(C)O [Antibiotic 14, erythromycin] = −
C/C(=C\c1ccc2c(c1)OCO2)[N+](=O)[O-] = +
CN(C)[C@@H]1C(=O)C(C(N)=O)=C(O)[C@@]2(O)C(=O)C3=C(O)c4c(O)cccc4[C@@](C)(O)[C@H]3C[C@@H]12 [Antibiotic 13, tetracycline] = −

Field: next compound
Suppression of Growth (+/−) of CCC[C@@H]1C[C@@H](C(=O)N[C@@H]([C@H]2O[C@H](SC)[C@H](O)[C@@H](O)[C@H]2O)[C@@H](C)O)N(C)C1 [Antibiotic 6, lincomycin] on Staphylococcus aureus M-209?
−
